Consider the following molecules and their measured inhibition in vivo at 1 µM readings.
# Tested on: Mycobacterium tuberculosis
# assayExplanation: Antibacterial activity against Mycobacterium tuberculosis H37Rv harboring pSMT1 encoding Vibrio harveyi luxAB gene infected in mouse J774.A1 cells at 1 uM after 5 days by luminometric analysis
# Type: functional
# conditionsUsed: J774.A1, 120 h, read-out: GI
API: value field is a number in %; no unit string.

Use these answered entries as a reference point.
Ask: So what does the record say about inhibition in vivo at 1 µM for CCCNC(=N)c1ccc(N2CCN(c3ccccc3)CC2)cc1.Cl ?
Result: 12.9

Ask: So what does the record say about inhibition in vivo at 1 µM for CCNC(=N)c1ccc(N2CCN(c3ccccc3)CC2)cc1.Cl ?
Result: 13.4

Ask: So what does the record say about inhibition in vivo at 1 µM for CNC(=N)c1ccc(N2CCN(c3ccccc3)CC2)cc1.Cl ?
Result: 6.43

Ask: So what does the record say about inhibition in vivo at 1 µM for CCCCCNC(=N)c1ccc(N2CCN(c3ccccc3)CC2)cc1.Cl ?
Result: 53.6

***
Ask: So what does the record say about inhibition in vivo at 1 µM for CCCCCCNC(=N)c1ccc(N2CCN(c3ccccc3)CC2)cc1.Cl ?
Result: 79.2

Ask: So what does the record say about inhibition in vivo at 1 µM for CCCCCCCCNC(=N)c1ccc(N2CCN(c3ccccc3)CC2)cc1.Cl ?
Result: 31.1

Ask: So what does the record say about inhibition in vivo at 1 µM for Cl.N=C(N)c1ccc(N2CCN(c3ccccc3)CC2)cc1 ?
Result: 0.41

Ask: So what does the record say about inhibition in vivo at 1 µM for NNC(=O)c1ccncc1 [ISONIAZID] ?
Result: 29.4

Ask: So what does the record say about inhibition in vivo at 1 µM for CCCCCCCCCCCCNC(=N)c1ccc(N2CCN(c3ccccc3)CC2)cc1.Cl ?
Result: 23.4

Ask: So what does the record say about inhibition in vivo at 1 µM for CCCCNC(=N)c1ccc(N2CCN(c3ccccc3)CC2)cc1.Cl ?
Result: 31.6

Ask: So what does the record say about inhibition in vivo at 1 µM for CCCCCCCNC(=N)c1ccc(N2CCN(c3ccccc3)CC2)cc1.Cl ?
Result: 64.2
